The measured values listed here are drawn from patent US20240391936A1.

This section lists pIC50 readings for DDR1 (Homo sapiens).
pIC50: −log10 of the molar value.

Previously resolved entries follow.
[
  {
    "structureNotation": "CC(C)(C)c1cncc(NC(=O)c2csc3c2CCN(C(=O)c2cnc4ccccn24)C3)c1",
    "targetDesc": "DDR1 (Homo sapiens)",
    "pIC50": "> 7.60"
  },
  {
    "structureNotation": "Cc1n[nH]c2ncc(CN3CCc4c(C(=O)Nc5cc(C6CC6)on5)csc4C3)cc12",
    "targetDesc": "DDR1 (Homo sapiens)",
    "pIC50": "> 7.60"
  },
  {
    "structureNotation": "COc1ncc(NC(=O)c2csc3c2CCN(C(=O)c2cnn4ccncc24)C3)cc1C(F)(F)F",
    "targetDesc": "DDR1 (Homo sapiens)",
    "pIC50": "7.10 to 7.30"
  },
  {
    "structureNotation": "O=C(Nc1cccc(C(F)(F)F)c1)c1csc2c1CCN(C(=O)c1cnc3[nH]ccc3c1)C2",
    "targetDesc": "DDR1 (Homo sapiens)",
    "pIC50": "7.30 to 7.60"
  }
]

DDR1 (Homo sapiens) / pIC50 / `Cn1ccn2ncc(C(=O)N3CCc4c(C(=O)Nc5cncc(C(F)(F)F)c5)csc4C3)c12` : value?
> 7.60

DDR1 (Homo sapiens) / pIC50 / `O=C(Nc1cccc(C(F)(F)F)c1)c1csc2c1CCN(C(=O)c1cnc3n1CCCC3)C2` : value?
> 7.60
